# Assay Protocol: basal S. cerevisiae growth modulation, no modifier, primary screen, OD600, strain BY4716, 24 h, basal condition (AID 1173)
# Condition Notes: OD600, 24 h, higher = more signal, called active from +8 up or from −8 down
Active and inactive are the calls of the source.
So I've got a bunch of compounds here, and I need their z-score values.

Using the record for Cc1ccc(S(=O)(=O)N[C@H]2COC(=O)CC=C[C@@H](C)COC(=O)CC=C[C@@H]2C)cc1 , report its z-score. -0.603 (inactive)

Using the record for CC[C@@H](c1ccccc1)n1c(=O)n2n(c1=O)[C@H]1[C@H](O)[C@@H]3O[C@@H]3C(=O)[C@H]1CC2 , report its z-score. -1.57 (inactive)

Using the record for CCCNC(=O)OC[C@H]1O[C@H](CCON=C(C)CCC(=O)OC[C@H]2O[C@H](c3ccccc3)C=C[C@@H]2Oc2ccc(OC)cc2)C=C[C@@H]1Oc1ccc(OC)cc1 , report its z-score. 0.195 (inactive)

Using the record for CCOC(=O)[C@H](Cc1ccccc1)NC(=O)CCC1CC(OC(=O)NCCc2ccc(F)cc2)CC2(CCCC(COC(=O)NCCc3ccccc3OC)O2)O1 (some centres undefined) , report its z-score. 0.456 (inactive)

---

# Tested on: Plasmodium falciparum Sir2 (PF13_0152, Sir2A)
# Assay Protocol: pfSir2 binders on small-molecule microarrays, primary screen, biochemical, small-molecule microarray, 635 nm fluorescence (AID 1098);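 note: score merges spot fluorescence intensity with its signal-to-noise ratio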
# Condition Notes: small-molecule microarray binding, fluorescence 635 nm; higher = more signal
Property Label: composite z-score
Just the number, please, no unit attached.

Request - read-out composite z-score | tested on Plasmodium falciparum Sir2 (PF13_0152, Sir2A) | compound COc1ccc(O[C@H]2C=C[C@@H](c3ccccc3)O[C@@H]2COC(=O)CCC(C)=NO[C@@H]2O[C@H](COC(C)=O)[C@@H](OC(C)=O)[C@H](OC(C)=O)[C@H]2OC(C)=O)cc1 0.538

Request - read-out composite z-score | tested on Plasmodium falciparum Sir2 (PF13_0152, Sir2A) | compound CC(C)=CCCC(C)=CCON=C1C[C@@H](O)[C@@H](O)[C@@H]2[C@@H]3C(=O)N(C4CCCCC4)C(=O)[C@@H]3CC[C@@H]12 0.511

Request - read-out composite z-score | tested on Plasmodium falciparum Sir2 (PF13_0152, Sir2A) | compound O=C(NN=C1C[C@@H](O)[C@@H](O)[C@@H]2[C@@H]3C(=O)N(Cc4ccccc4)C(=O)[C@@H]3CC[C@@H]12)OCc1ccccc1 0.0168

Request - read-out composite z-score | tested on Plasmodium falciparum Sir2 (PF13_0152, Sir2A) | compound CCOC(=O)[C@H](Cc1ccccc1)NC(=O)CCC1CC(OC(=O)NCc2cccc3ccccc23)CC2(CCCC(COC(=O)NCCC(C)C)O2)O1 (some centres undefined) 0.12

---

So I've got a bunch of compounds here, and I need their composite z-score values.
# Target Or System: Albumin (Bos taurus)
# Assay Protocol: bovine serum albumin binders on microarray, profiling panel, artefact control for SMM control protein annotation, biochemical, small-molecule microarray, Alexa647 label, 635/667 nm fluorescence (AID 1118);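 note: score merges 667 nm emission intensity and signal-to-noise per printed compound spot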
# Condition Notes: BSA-A647 binding, fluorescence 635 nm, higher = more signal
Just the number, please, no unit attached.

Using the record for CCOC(=O)[C@H](Cc1ccccc1)NC(=O)CCC1CC(OC(=O)NCCc2ccc(F)cc2)CC2(CCCC(COC(=O)NCCOC)O2)O1 (some centres not stated) , report its composite z-score. 0.257

Using the record for CO[C@@H]1C=CCC(=O)N[C@@H](C)C(=O)OC[C@@H](OC)[C@H](C)CCCC(=O)OC[C@H]1C , report its composite z-score. -0.555

Using the record for CC(C)=CCCC(C)=CCON=C1C[C@@H](O)[C@@H](O)[C@@H]2[C@@H]3C(=O)N(c4ccc(F)cc4F)C(=O)[C@@H]3CC[C@@H]12 , report its composite z-score. 0.572

Using the record for C[C@@H](c1ccccc1)N1C(=O)[C@H]2[C@H]3[C@H](O)[C@H](O)CC(=O)[C@H]3CC[C@H]2C1=O , report its composite z-score. 0.587

Using the record for CON=C[C@@H](NS(=O)(=O)c1ccc(C)cc1)[C@H](C)C=CCC(=O)OC , report its composite z-score. -0.625

Using the record for COc1ccc(O[C@H]2C=C[C@@H](c3ccccc3)O[C@@H]2CON=C(C)CCN2CCc3nc(-c4ccccc4)c(-c4ccccc4)cc3C2)cc1 , report its composite z-score. 0.628

Using the record for CC(=O)OC[C@H]1O[C@H](CC=NO[C@H](C)c2cn([C@H](CO)Cc3ccccc3)nn2)C=C[C@@H]1OC(C)=O , report its composite z-score. 0.376
